Data provenance: the supplement of paper PMC10065799

Biological target: MERTK (UniProt Q12866)
Sequence (Q12866 whole entry, looked up): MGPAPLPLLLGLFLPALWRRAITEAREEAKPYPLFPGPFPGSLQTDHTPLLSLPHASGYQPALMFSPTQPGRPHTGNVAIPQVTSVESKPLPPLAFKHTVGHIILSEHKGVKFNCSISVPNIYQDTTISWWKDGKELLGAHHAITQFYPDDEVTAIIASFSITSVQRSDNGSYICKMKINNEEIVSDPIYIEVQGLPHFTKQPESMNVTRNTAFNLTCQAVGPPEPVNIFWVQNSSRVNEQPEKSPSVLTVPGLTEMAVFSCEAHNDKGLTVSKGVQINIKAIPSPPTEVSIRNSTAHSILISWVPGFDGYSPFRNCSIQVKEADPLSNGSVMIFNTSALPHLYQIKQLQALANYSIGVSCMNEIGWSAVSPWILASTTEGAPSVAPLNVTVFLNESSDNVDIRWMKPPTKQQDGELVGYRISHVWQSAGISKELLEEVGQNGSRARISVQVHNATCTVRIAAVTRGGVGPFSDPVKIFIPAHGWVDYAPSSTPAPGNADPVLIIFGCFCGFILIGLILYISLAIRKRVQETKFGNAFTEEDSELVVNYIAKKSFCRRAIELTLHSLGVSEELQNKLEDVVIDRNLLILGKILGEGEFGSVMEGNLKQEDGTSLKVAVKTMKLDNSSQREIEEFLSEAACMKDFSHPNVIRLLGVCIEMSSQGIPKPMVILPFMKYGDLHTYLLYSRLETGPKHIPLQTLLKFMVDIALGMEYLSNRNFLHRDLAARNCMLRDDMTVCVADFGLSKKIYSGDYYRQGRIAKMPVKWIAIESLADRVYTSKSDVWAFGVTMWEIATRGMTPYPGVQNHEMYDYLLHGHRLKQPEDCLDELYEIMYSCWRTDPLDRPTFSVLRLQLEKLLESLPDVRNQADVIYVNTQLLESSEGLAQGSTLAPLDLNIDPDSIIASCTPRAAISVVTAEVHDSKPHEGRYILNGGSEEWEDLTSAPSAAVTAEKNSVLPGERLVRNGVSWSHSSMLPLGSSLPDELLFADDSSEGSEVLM
Assay: phosphorylation enrichment, bacterial display (enrichment ratio); higher = better substrate or ligand; peptides without Tyr show the background
property-measured: phosphorylation enrichment
Give the figure by itself; no unit, no explanation.

Example entries begin here.
- seq: "ANNEFYFRVCA"
  result-number: 0.44
- seq: "WGLRSYYETSK [MAGED2_Y448]"
  result-number: 0.298
- seq: "ALSDGYWVVSN [TPP1_Y459]"
  result-number: 0.372
- seq: "VPLATYMRIFK [RPL21_Y30_YF]"
  result-number: 0.35

Now for a further sequence.
The sequence NRDNTYNPVSE [FGA_Y127_R129P] , tested on MERTK (UniProt Q12866), showed phosphorylation enrichment of 0.486

---

Biological target: SHP2-C SH2
Assay: SH2 binding enrichment of the phosphorylated peptide, bacterial display (enrichment ratio); higher = better substrate or ligand; peptides without Tyr show the background
property-measured: SH2 binding enrichment
Give the figure by itself; no unit, no explanation.

Example entries begin here.
- seq: "WFPSTYVEEDE [VAV3_Y842]"
  result-number: 0.768
- seq: "KLIMEYLPFGS [JAK2_Y931_YF]"
  result-number: 0.788
- seq: "EKEQNYDLTEV [ECD_Y448]"
  result-number: 0.802
- seq: "SHTPSYCDESL [RITA1_Y109]"
  result-number: 0.706
- seq: "TIMTDYNPNYC [ALK_Y1092]"
  result-number: 0.654

Now for a further sequence.
Quick note, SH2 binding enrichment for GDFSRYDEGSG [RECQL5_Y484] landed at 0.664

---

System: c-Abl (mouse)
Assay: phosphorylation enrichment, bacterial display (enrichment ratio); higher = better substrate or ligand; peptides without Tyr show the background
property-measured: phosphorylation enrichment
Give the figure by itself; no unit, no explanation.

- seq: "LNYNEYFRDLN [HPRT1_Y198_D194N]"
  result-number: 1.01
- seq: "RLGDLYEEEMR [VIM_Y150]"
  result-number: 0.585
- seq: "TDKLFYIYTSG [SLC27A4_Y243]"
  result-number: 1.18

Quick note, phosphorylation enrichment for AEDKPYAELWT [MPI_Y46_M51T] landed at 0.772

Quick note, phosphorylation enrichment for EASGIYVKSVI [PATJ_Y396_I400V] landed at 0.716

Quick note, phosphorylation enrichment for KFDLMYAKWAF [TUBA3E_Y399] landed at 1.68

Quick note, phosphorylation enrichment for EKSREYDRLYE [PIK3R1_Y463] landed at 0.938

Quick note, phosphorylation enrichment for VKPENYRRPDI [VHL_Y175_L178P] landed at 0.63

---

Molecular target: MERTK (UniProt Q12866)
Assay: phosphorylation enrichment, bacterial display (enrichment ratio); higher = better substrate or ligand; peptides without Tyr show the background
This section presents sequences with their documented phosphorylation enrichment values.

Example entries begin here.
- seq: "GLCSFYETSKM [MAGED2_Y449_R446C_YF]"
  property-measured: "phosphorylation enrichment"
  result: 0.706
- seq: "APEVIYATPGA [ABLtide_2014]"
  property-measured: "phosphorylation enrichment"
  result: 8.2
- seq: "LSSISYVGCSL [ADGRD1_Y571]"
  property-measured: "phosphorylation enrichment"
  result: 0.541
- seq: "RMDGKYACSYT [FLNB_Y704_T703K]"
  property-measured: "phosphorylation enrichment"
  result: 0.484
- seq: "RFLERDIYNRE [HLA-DPB1_Y57_Y57D]"
  property-measured: "phosphorylation enrichment"
  result: 1.26
- seq: "TARREYMHSPS [CPOX_Y429_W427R]"
  property-measured: "phosphorylation enrichment"
  result: 0.43

Quick note, phosphorylation enrichment for QWRTKYETDTI [MYH7_Y1375_A1379T] landed at 0.414

Quick note, phosphorylation enrichment for AAILGYCHGEA [XPC_Y669_R671H] landed at 0.827

Quick note, phosphorylation enrichment for NNIDFYKNTTN [FGFR2_Y657_K659N_YF] landed at 0.352

Quick note, phosphorylation enrichment for PARLEYCENEK [IRS1_Y46_Y47C] landed at 0.762

Quick note, phosphorylation enrichment for MSRYIYSTDYY [NTRK1_Y676_D674Y] landed at 12.3

Quick note, phosphorylation enrichment for EIIPFYGMSTF [FNDC3B_Y175_YF] landed at 0.901

---

This section presents sequences with their documented phosphorylation enrichment values.
Biological target: FGFR3 (UniProt P22607)
Sequence (P22607 whole entry, looked up): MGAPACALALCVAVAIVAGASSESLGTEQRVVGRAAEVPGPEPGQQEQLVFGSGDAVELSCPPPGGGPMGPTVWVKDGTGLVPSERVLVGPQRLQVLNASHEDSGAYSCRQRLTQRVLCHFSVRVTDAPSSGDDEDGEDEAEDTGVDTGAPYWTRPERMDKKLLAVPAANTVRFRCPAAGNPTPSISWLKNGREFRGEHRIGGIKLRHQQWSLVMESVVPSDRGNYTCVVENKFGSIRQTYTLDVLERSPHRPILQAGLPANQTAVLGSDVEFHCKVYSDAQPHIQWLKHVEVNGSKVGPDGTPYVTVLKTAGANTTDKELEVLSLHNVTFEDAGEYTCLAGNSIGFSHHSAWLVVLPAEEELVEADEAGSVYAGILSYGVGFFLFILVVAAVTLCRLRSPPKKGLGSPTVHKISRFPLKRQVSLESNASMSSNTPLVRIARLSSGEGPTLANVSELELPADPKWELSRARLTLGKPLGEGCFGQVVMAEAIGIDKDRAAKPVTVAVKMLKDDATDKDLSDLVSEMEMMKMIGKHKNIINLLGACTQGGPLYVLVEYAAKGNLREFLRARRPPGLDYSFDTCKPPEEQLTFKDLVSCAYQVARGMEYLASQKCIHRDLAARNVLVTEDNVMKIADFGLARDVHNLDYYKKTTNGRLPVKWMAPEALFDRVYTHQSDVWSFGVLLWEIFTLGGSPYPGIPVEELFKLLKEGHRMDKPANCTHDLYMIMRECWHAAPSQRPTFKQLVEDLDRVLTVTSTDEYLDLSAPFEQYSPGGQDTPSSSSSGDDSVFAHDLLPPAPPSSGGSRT
Assay: phosphorylation enrichment, bacterial display (enrichment ratio); higher = better substrate or ligand; peptides without Tyr show the background
Give the figure by itself; no unit, no explanation.

Example entries begin here.
- seq: "DRLASYPEKVR [KRT13_Y118_L119P]"
  result-number: 0.413
- seq: "VTSLKYSTPPF [BRIP1_Y916_S919P_YF]"
  result-number: 0.517
- seq: "PSQRRYLYYYS [PTEN_Y174_V175L]"
  result-number: 0.937
- seq: "VDEERYDIEAK [TNNI3_Y112]"
  result-number: 0.697
- seq: "SREALYNETDP [CACNA1A_Y794_M797T]"
  result-number: 0.815

The sequence VDDEIYYFRKP [PBRM1_Y1289] , tested on FGFR3 (UniProt P22607), showed phosphorylation enrichment of 5.81

The sequence PLLEFYWDIFT [CDAN1_Y713_R714W_YF] , tested on FGFR3 (UniProt P22607), showed phosphorylation enrichment of 0.94

The sequence PFADPYFDFEI [ZC3H18_Y371_YF] , tested on FGFR3 (UniProt P22607), showed phosphorylation enrichment of 6.94

The sequence ALECLYRREKR [TEKT5_Y195_H196R] , tested on FGFR3 (UniProt P22607), showed phosphorylation enrichment of 0.482

---

Target: c-Src SH2
Experiment: SH2 binding enrichment of the phosphorylated peptide, bacterial display (enrichment ratio); higher = better substrate or ligand; peptides without Tyr show the background
Class (by SH2 binding enrichment) -- lowest = under 0.6, middle = from 0.6 up to 0.9, highest = 0.9 and over

- seq: "TVINKYQGKLF [HGD_Y249]"
  assigned-class: "lowest"
- seq: "HFVDEYDLTIE [KRAS_Y32_P34L]"
  assigned-class: "middle"
- seq: "AFPGEYIPTVF [RAC1_Y32]"
  assigned-class: "lowest"
- seq: "IYHLSYIHNCE [PDE6B_Y227_L228I]"
  assigned-class: "middle"
- seq: "KKMKRYHVGKV [HARS2_Y151]"
  assigned-class: "highest"

In: For SSKILYHIIKG [CDH17_Y489] , which SH2 binding enrichment bin applies?
Out: highest

In: For EAESWYQTKFE [KRT75_Y342_YF] , which SH2 binding enrichment bin applies?
Out: middle

In: For KSVSQYLEMDK [CAGE1_Y438] , which SH2 binding enrichment bin applies?
Out: highest

In: For DDPRTYQKFGF [OAS1_Y362_R361T_YF] , which SH2 binding enrichment bin applies?
Out: lowest

In: For YVGGFYGGCNE [CTSC_Y352] , which SH2 binding enrichment bin applies?
Out: highest

In: For TQNGVYSAANY [DDX5_Y535] , which SH2 binding enrichment bin applies?
Out: middle

In: For SSYSRYIMMPN [LEF1_Y114_G113R] , which SH2 binding enrichment bin applies?
Out: highest

In: For IEKLPYIDKWF [CPS1_Y872_T871P] , which SH2 binding enrichment bin applies?
Out: middle

In: For RLQEDYDHSYY [ESD_Y258_G257D] , which SH2 binding enrichment bin applies?
Out: highest

---

Molecular target: Grb2 SH2 (UniProt P62993)
Sequence (P62993 whole entry, looked up): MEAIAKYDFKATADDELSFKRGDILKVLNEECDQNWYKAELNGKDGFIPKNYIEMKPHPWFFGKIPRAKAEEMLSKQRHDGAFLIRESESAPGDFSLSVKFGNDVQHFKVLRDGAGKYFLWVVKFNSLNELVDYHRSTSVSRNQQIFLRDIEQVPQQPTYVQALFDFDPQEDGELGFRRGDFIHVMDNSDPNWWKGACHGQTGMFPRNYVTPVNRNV
Assay: SH2 binding enrichment of the phosphorylated peptide, bacterial display (enrichment ratio); higher = better substrate or ligand; peptides without Tyr show the background
property-measured: SH2 binding enrichment
Give the figure by itself; no unit, no explanation.

Example entries begin here.
- seq: "TRTEAYAVSSF"
  tested-on: "Grb2 SH2 (UniProt P62993)"
  property-measured: "SH2 binding enrichment"
  result-number: 0.88
- seq: "PVDVAYRRGYF [PLEC_Y2967]"
  tested-on: "Grb2 SH2 (UniProt P62993)"
  property-measured: "SH2 binding enrichment"
  result-number: 0.876

Quick note, SH2 binding enrichment for VSVVDYVEPSP [TXNRD2_Y70_A66S] landed at 0.888

---

Molecular target: SHP2-C SH2
Assay: SH2 binding enrichment of the phosphorylated peptide, bacterial display (enrichment ratio); higher = better substrate or ligand; peptides without Tyr show the background
This section presents sequences with their documented SH2 binding enrichment values.
Give the figure by itself; no unit, no explanation.

- seq: "EPYKVYRIVPE [IRF8_Y110]"
  property-measured: "SH2 binding enrichment"
  result-number: 0.646

Quick note, SH2 binding enrichment for HFVDEYDLTIE [KRAS_Y32_P34L] landed at 0.847

Quick note, SH2 binding enrichment for QDIMAYRGREV [BCL6_Y157] landed at 0.729

Quick note, SH2 binding enrichment for GVASDYKCVDP [VPS13B_Y1991_I1994V] landed at 0.631

Quick note, SH2 binding enrichment for RKEAQYMLENE [SLC16A6_Y224] landed at 0.791

Quick note, SH2 binding enrichment for EKLQQYLAPGM [EPHB3_Y600_I601L] landed at 0.559
